Test system: RPMI-8226 leukemia
Assay: NCI-60 one-dose screen, 48 h (100 = growth as untreated, 0 = no growth, -100 = all killed)
Conditions: 10 µM
Compounds without any hit were thinned out: in the full panel of roughly 83,000, 20% have a hit. Active and inactive are the calls of the source. How the source made its calls: active means growth percent below 10; inactive means the rest.
Result type: growth

INSERT INTO measurements (compound, result_type, measured_value) VALUES
  ('O=C(c1ccccc1)c1ccc2nc(-c3ccccc3Br)[nH]c2c1', 'growth', '-17.9% (active)'),
  ('O=C(Nc1ccc(OCC(=O)c2ccc(Cl)cc2)cc1)Nc1ccc(Cl)c(C(F)(F)F)c1', 'growth', '12.2% (inactive)'),
  ('COc1ccc(C2OC[C@@]3(C)C4CC[C@]5(C)C(CC=C6C7CC(C)(C)CC[C@]7(C(=O)O)CC[C@]65C)[C@@]4(C)C[C@@H](O)[C@@H]3O2)cc1 (some centres undefined)', 'growth', '40.3% (inactive)'),
  ('COc1cc2oc(-c3cccc(C(=O)Nc4ccc(Cl)cc4)c3)cc(=O)c2c(OCCN)c1OC', 'growth', '-64.2% (active)');

---

Tested on: LOX IMVI melanoma
Test: NCI-60 one-dose screen, 48 h (100 = growth as untreated, 0 = no growth, -100 = all killed)
Conditions: 10 µM
Compounds without any hit were thinned out: in the full panel of roughly 83,000, 20% have a hit.
Each entry below carries its recorded growth.
Result type: growth (%)

INSERT INTO results (compound, value_unit, measured_value) VALUES
  ('COc1ccc(-n2c(SCC(=O)NNS(=O)(=O)c3ccccc3)nc3ccc(Cl)cc3c2=O)cc1', '%', 87.2),
  ('COc1cc(C2CC(c3ccc(Oc4ccc(Cl)cc4)cc3)=NN2c2nc(-c3ccc(Cl)cc3)c(C#N)c(N3CCOCC3)n2)cc(OC)c1OC (stereo not drawn)', '%', 80.6),
  ('C#C[C@]1(O)CC[C@H]2[C@@H]3CC=C4c5sc(Nc6ccc(C(F)(F)F)cn6)nc5CC[C@]4(C)[C@H]3CC[C@@]21C', '%', -98.5),
  ('Cn1cc(-c2cc3nc(-c4c[nH]c5ccccc45)cc(N)n3n2)c2cc(Cl)ccc21', '%', -91.6),
  ('Cn1cc(-c2nnc(N)nc2-c2c[nH]c3ccccc23)c2cc(Br)cnc21', '%', -75.6),
  ('Cc1ccc2sc3c(c2c1)Oc1nc[nH]c(=O)c1C3c1cccc(F)c1 (stereo not drawn)', '%', 107),
  ('O=C(Nc1ccc(Oc2ncnc3scc(Nc4n[nH]c(=S)s4)c23)cc1)C1(C(=O)Nc2cccc(C(F)(F)F)c2)CC1', '%', 30.4),
  ('O=C(Nc1ccc(OCC(=O)c2ccc(Cl)cc2)cc1)Nc1ccc(Cl)c(C(F)(F)F)c1', '%', -37.8);

---

System: SNB-19 CNS
Assay: NCI-60 one-dose screen, 48 h (100 = growth as untreated, 0 = no growth, -100 = all killed)
Details: 10 µM
This is part of a sample that, as a whole, favours compounds with a hit. Of some 83,000 tested, about 20% had one in any assay.
Listed compounds paired with reported growth
Result type: growth (%)

INSERT INTO results (compound, value_unit, measured_value) VALUES
  ('COc1cccc(C(=O)CSc2nc(-c3ccc(OCc4ccccc4)c(OC)c3)c(C#N)c(=O)[nH]2)c1', '%', 70.7),
  ('CCOC(=O)C1=C(N)N(c2ccc(C)cc2)C2=C(C(=O)CC(C)(C)C2)C1c1ccccc1Br (stereo unspecified)', '%', 86.7),
  ('CCOC(=O)c1ccc(NC(=O)CSC(CC(=O)c2sc(Nc3ccccn3)nc2C)c2ccccc2F)cc1 (stereo unspecified)', '%', 21.1),
  ('COc1ccc(C2c3sc4ccc(C)cc4c3Oc3nc(N)nc(N)c32)cc1 (stereo unspecified)', '%', 84.5),
  ('COc1ccc(C(=O)COc2ccc(NC(=O)Nc3ccccc3)cc2)cc1', '%', 93.3),
  ('Cc1ccc(-c2nc(C#N)c(S(=O)(=O)N3CCN(S(C)(=O)=O)CC3)o2)cc1', '%', 93.9),
  ('Cn1cc(-c2nnc(N)nc2-c2c[nH]c3ccc(F)cc23)c2cc(Br)cnc21', '%', 58.3),
  ('COC(=O)CNC(=O)COc1c(OC)c(OC)cc2oc(-c3cccc(C(=O)Nc4ccc(Cl)cc4)c3)cc(=O)c12', '%', 25.9),
  ('O=C1NC2C=CC=CC2/C1=C1/SC(=S)N(C2CC(=O)N(c3ccc(Br)cc3)C2=O)C1=O (stereo unspecified)', '%', 93.9),
  ('O=C(CC(=O)Nc1ccc(Oc2ncnc3scc(Nc4n[nH]c(=S)s4)c23)cc1)Nc1ccc(Cl)cc1', '%', 87.7),
  ('Cc1ccc2c(c1)C(=O)/C(=C/c1c[nH]c3ccccc13)S2', '%', 27.3),
  ('Cc1ccc2sc3c(c2c1)Oc1nc[nH]c(=O)c1C3c1cccc(F)c1 (stereo unspecified)', '%', 92.6),
  ('O=C(Nc1ccc(OCc2ccc(F)cc2)cc1)Nc1ccc(Cl)c(C(F)(F)F)c1', '%', 18.3),
  ('O=C(c1ccc(Cl)cc1)C(c1c[nH]c2ccccc12)c1c[nH]c2ccccc12', '%', 22.4),
  ('Cc1cc(N=C2NC(=O)S/C2=C\c2ccc(F)cc2)n[nH]1', '%', 27.4),
  ('COc1cc(C2CC(c3ccc(Oc4ccc(Cl)cc4)cc3)=NN2c2nc(-c3ccc(Cl)cc3)c(C#N)c(N3CCOCC3)n2)cc(OC)c1OC (stereo unspecified)', '%', 102);

---

Test system: MDA-MB-468 breast
Experiment: NCI-60 one-dose screen, 48 h
Conditions: 10 µM unless noted
The panel holds about 83,000 compounds, 20% with a hit somewhere; the sample as a whole holds those more often. Activity calls are given as the source filed them. The calls were made as follows: active = growth percent below 10; inactive = the rest.
Outcomes: 1 (active), -1 (inactive)

INSERT INTO measurements (given_smiles, assigned_class) VALUES
  ('COc1cc2c3c(n(CCCN4CCCC4)c(=O)c2cc1OC)-c1cc2c(cc1C3=O)OCO2', -1),
  ('N#CSCc1ccc(Cl)c(CSC#N)c1', -1),
  ('CCCNNC(=O)c1ccc(CNC(=O)/C=C/c2ccccc2)cc1', -1),
  ('Cc1nn(-c2ccccc2)c(Cl)c1/C=N\N=c1/sc2ccccc2n1C', -1),
  ('Cc1cc(NCCCCNc2ccnc3cc(Cl)ccc23)nc(Nc2ccc(C(=O)N3CCCC3)cc2)n1', 1),
  ('O=C(NNC(=S)Nc1ccccc1)c1ccncc1', -1);

---

System: MDA-MB-468 breast
Assay: NCI-60 one-dose screen, 48 h (100 = growth as untreated, 0 = no growth, -100 = all killed)
Conditions: 10 µM unless noted
About 83,000 compounds went through this panel and 20% of them were active in at least one assay; those are over-represented in the sample as a whole. Activity calls are given as the source filed them. The calls were made as follows: active = growth percent below 10; inactive = the rest.
Result type: growth

INSERT INTO measurements (molecule, measured_value) VALUES
  ('COc1cccc(CNc2ccc3ncnc(Nc4ccc(F)c(Cl)c4)c3c2)c1', '-19.6% (active)'),
  ('O=C1Nc2ccccc2/C1=N/N=C/c1ccsc1', '78.3% (inactive)'),
  ('O=c1cc(CSc2nnc(-c3ccccc3)n2-c2ccc(F)cc2)c2ccc3ccccc3c2o1', '93.2% (inactive)'),
  ('CCCCCCCCCCC(CN(CC)CC)C(O)c1ccccc1 (configuration not stated)', '-61.2% (active)'),
  ('COc1ccc(/C=C(/C(=O)N2CCN(Cc3ccccc3)CC2)c2cc(OC)c(OC)c(OC)c2)cc1O', '20.4% (inactive)'),
  ('c1ccc(C2CCCCC2)c(OCCCCCN2CCNCC2)c1', '-36.2% (active)'),
  ('Cc1ccc(NS(=O)(=O)c2ccc(-c3cnc(C4CC4)o3)cc2)cc1', '-0.814% (active)'),
  ('O=[N+]([O-])c1cccc(-c2nc3sccn3c2-c2ccnc(NCCCNS(=O)(=O)c3ccc(F)cc3)n2)c1', '-8.54% (active)'),
  ('COc1ccccc1N1CCN(C(=S)Nc2ccccc2)CC1', '97% (inactive)'),
  ('N#Cc1cn(Cc2ccc(Cl)cc2Cl)c(C(=O)c2ccc(Br)cc2)c1N', '75.5% (inactive)'),
  ('NS(=O)(=O)c1ccc(Nc2cc(-c3ccccc3)nc(SCC(=O)c3ccccc3)n2)cc1', '99.3% (inactive)'),
  ('O=C1N=NC2=C1c1c3ccccc3c(O)n1CC2', '96.6% (inactive)'),
  ('COc1ccc(NC(=O)/C=C/c2ccc(NC(=O)N3CCCC3)cc2)cn1', '116% (inactive)'),
  ('COc1ccc(/C=C/c2nc(Nc3ccc(S(=O)(=O)Nc4cc(C)on4)cc3)c3ccccc3n2)cc1', '29.9% (inactive)'),
  ('Cc1ccc(-c2nnc(SCc3ccc(O)c4ncccc34)n2-c2ccccc2)cc1', '9.08% (active)'),
  ('CN(C[C@H]1Cc2c(cccc2N2CCN(Cc3ccccn3)CC2)CN1)[C@H]1CCCc2cccnc21', '63.4% (inactive)'),
  ('NC1=CC(=O)c2ccccc2C1=O', '96.2% (inactive)'),
  ('FC(F)(F)c1ccc(-c2cnc(-n3cc(COCCN4CCCCC4)nn3)nc2NC2CCCCCC2)cc1', '16.1% (inactive)'),
  ('O=C(Nc1ccc(NCCN2CCOCC2)nc1)c1ccc([N+](=O)[O-])cc1', '104% (inactive)'),
  ('CC(=O)N[C@H](C(=O)N[C@@H](CCCNC(=N)N)C(=O)N[C@@H](CCCCN)C(=O)N[C@@H](CCCNC(=N)N)C(=O)N[C@]1(C)CCCCCC/C=C\CCC[C@@](C)(C(=O)N[C@@H](CCCNC(=N)N)C(=O)N[C@@H](CCC(=O)O)C(=O)N[C@@H](CC(C)C)C(=O)N[C@H](C(=O)N[C@@H](CCC(=O)O)C(N)=O)C(C)C)NC(=O)[C@H](CCC(N)=O)NC(=O)[C@H](CC(C)C)NC(=O)[C@H](CC(C)C)NC(=O)[C@H](CCCNC(=N)N)NC(=O)[C@H](CCCNC(=N)N)NC(=O)[C@H](CC(C)C)NC1=O)C(C)C', '20.5% (inactive)'),
  ('COc1ccc(OC)c(/C=C/c2nc(SCc3ccccc3)n(-c3ccc(Cl)cc3)n2)c1', '34.4% (inactive)'),
  ('Nc1nc(-c2ccc(F)cc2)cc(-c2cnn(-c3ccccc3)n2)n1', '104% (inactive)'),
  ('CCCCCCCCCC(=O)Oc1ccc(/C(=C(/C)c2ccccc2)c2ccc(OCCN3CCCC3)cc2)cc1', '-29.4% (active)'),
  ('CCOc1nc(-c2ccccc2)cc2c(O)c(C(=O)N/N=C/c3ccccc3)[nH]c(=O)c12', '105% (inactive)'),
  ('C#CCOC(=O)C(N)CS (configuration not stated)', '97.3% (inactive)'),
  ('COc1ccc(/C=C2\COc3ccc(O)c(O)c3C2=O)cc1OC', '-22.8% (active)'),
  ('CCOc1ccccc1/C=N\N=C(\N)N/N=C/c1ccccc1OCC', '-8.3% (active)'),
  ('C=C(C[C@](O)(C(=O)/C=C/c1ccc(Cl)cc1)C(=O)OC)c1ccccc1', '69.5% (inactive)'),
  ('CCOc1cc(C2C(Cl)C(=O)N2n2cnnc2)ccc1O (configuration not stated)', '111% (inactive)'),
  ('CN1CC[C@@H](c2c(O)cc(O)c3c(=O)cc(-c4ccccc4Cl)oc23)[C@@H]1CO', '-44.2% (active)'),
  ('O=c1oc2c(cnc3ccccc32)cc1-c1cccs1', '107% (inactive)'),
  ('c1ccc2cc(Cn3c(-c4cccc5ccccc45)[n+](Cc4ccc5ccccc5c4)c4c5ccccc5c5ccccc5c43)ccc2c1', '-71.4% (active)'),
  ('C[C@@H](NC(=O)[C@@H](CC(=O)N1CCC(N2CCCCC2)CC1)N1C(=O)[C@@H](N2C(=O)OC[C@@H]2c2ccccc2)[C@H]1/C=C/c1cccc(Cl)c1)c1ccccc1', '1.45% (active)'),
  ('COc1ccccc1NC(=O)c1cc2cc(Br)ccc2cc1O', '-9.27% (active)'),
  ('O=C(N/N=C/c1c(Cl)cccc1Cl)c1ccccc1Nc1ccnc(C(F)(F)F)c1', '53.5% (inactive)'),
  ('NCCOc1ncccc1/C=C1\C2C=CC=CC2C2C=CC(F)=CC12 (configuration not stated)', '-7.18% (active)'),
  ('NC(=O)c1ccc(Br)o1', '103% (inactive)');
